B1: TOR1AIP2 (parent)
chain: AGQEGEDTLRRRLLAPEAGSHPQQ

Variants of: B1
method description: protein stability index of a GFP-peptide fusion (GPS, HEK-293T) (PSI 1-6); higher = more stable;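 further: lentivirally expressed fusions sorted by FACS into six bins by GFP to DsRed ratio, PSI derived from sequencing read proportions per bin multiplied by bin number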
setup conditions: c terminus: a fixed tail appended
Class 1: protein stability index at least 3. Class -1: protein stability index below 3.

variant_designation=A1G qualitative_label=1
variant_designation=G2P qualitative_label=-1
variant_designation=E17P qualitative_label=1
variant_designation=P22R qualitative_label=-1
variant_designation=R12I qualitative_label=-1
variant_designation=E17H qualitative_label=1
variant_designation=E6M qualitative_label=-1
variant_designation=G5L qualitative_label=-1
variant_designation=R12N qualitative_label=1
variant_designation=E6S qualitative_label=-1
variant_designation=A1N qualitative_label=-1
variant_designation=L14E qualitative_label=1
variant_designation=A18R qualitative_label=-1
variant_designation=R10G qualitative_label=1
variant_designation=R10S qualitative_label=1
variant_designation=H21A qualitative_label=-1
variant_designation=Q23W qualitative_label=-1
variant_designation=P22Y qualitative_label=-1
variant_designation=Q23L qualitative_label=-1
variant_designation=G19T qualitative_label=-1
variant_designation=L13Y qualitative_label=1
variant_designation=A1W qualitative_label=1
variant_designation=G5D qualitative_label=1
variant_designation=R11C qualitative_label=1
variant_designation=L14W qualitative_label=1
variant_designation=D7H qualitative_label=-1
variant_designation=P16N qualitative_label=1
variant_designation=S20P qualitative_label=-1
variant_designation=G5R qualitative_label=-1
variant_designation=A1E qualitative_label=1
variant_designation=G19N qualitative_label=-1
variant_designation=D7G qualitative_label=-1
variant_designation=T8H qualitative_label=1
variant_designation=E6K qualitative_label=-1
variant_designation=P22D qualitative_label=-1
variant_designation=R11V qualitative_label=1
variant_designation=L9M qualitative_label=1
variant_designation=Q23E qualitative_label=-1
variant_designation=A18Q qualitative_label=1
variant_designation=L13S qualitative_label=1
variant_designation=E6W qualitative_label=-1
variant_designation=G2D qualitative_label=1
variant_designation=E6Q qualitative_label=-1
variant_designation=H21M qualitative_label=-1
variant_designation=A18P qualitative_label=1
variant_designation=G19P qualitative_label=-1
variant_designation=Q24M qualitative_label=-1
variant_designation=Q3T qualitative_label=-1
variant_designation=G5A qualitative_label=-1
variant_designation=P22F qualitative_label=-1
variant_designation=G2W qualitative_label=-1
variant_designation=G19V qualitative_label=-1
variant_designation=Q23V qualitative_label=-1
variant_designation=G5T qualitative_label=-1
variant_designation=P16F qualitative_label=1
variant_designation=T8Q qualitative_label=-1
variant_designation=Q24P qualitative_label=-1
variant_designation=P16K qualitative_label=1
variant_designation=L9E qualitative_label=1
variant_designation=G2H qualitative_label=1
variant_designation=H21R qualitative_label=-1
variant_designation=E4G qualitative_label=-1
variant_designation=A18S qualitative_label=-1
variant_designation=R12F qualitative_label=-1
variant_designation=L9D qualitative_label=1
variant_designation=R12V qualitative_label=-1
variant_designation=A18C qualitative_label=-1
variant_designation=L13M qualitative_label=-1
variant_designation=H21K qualitative_label=-1
variant_designation=R12P qualitative_label=1
variant_designation=H21V qualitative_label=-1
variant_designation=D7L qualitative_label=-1
variant_designation=A1Q qualitative_label=-1
variant_designation=L14S qualitative_label=1
variant_designation=P16T qualitative_label=1
variant_designation=Q3M qualitative_label=-1
variant_designation=E4H qualitative_label=-1
variant_designation=G5N qualitative_label=1
variant_designation=Q3K qualitative_label=-1
variant_designation=S20Q qualitative_label=-1
variant_designation=P22H qualitative_label=-1
variant_designation=H21N qualitative_label=-1
variant_designation=G19C qualitative_label=-1
variant_designation=H21Y qualitative_label=-1
variant_designation=R12C qualitative_label=-1
variant_designation=P16V qualitative_label=1
variant_designation=T8N qualitative_label=-1
variant_designation=Q24F qualitative_label=-1
variant_designation=S20V qualitative_label=-1
